Kindly supply the reported GI50 values for the records listed here.
System: DMS-114
Experiment: NCI tumour cell line growth inhibition, 48 h
Activity calls are given as the source filed them. No stated cut-off is given here; in the data, active = GI50 up to about 1.1 µM and inactive = higher.

Give me measured GI50, please, for this compound: O=c1c(C(c2ccc([N+](=O)[O-])cc2)c2c(O)c3ccccc3n(-c3ccccc3)c2=O)c(O)c2ccccc2n1-c1ccccc1 20.3 µM (inactive)

State, in one line, measured GI50 of CC(=O)Nc1ccc(-c2nnc(SCC(=O)Nc3ccccc3[N+](=O)[O-])o2)cc1 27.9 µM (inactive)

Respond only with GI50 recorded for COc1nc(NC2OC(COC(C)=O)C(OC(C)=O)C(OC(C)=O)C2OC(C)=O)c(/N=C/C=N/c2c(NC3OC(COC(C)=O)C(OC(C)=O)C(OC(C)=O)C3OC(C)=O)nc(OC)n(C)c2=O)c(=O)n1C (stereo not drawn) > 100 µM (inactive)
